These data points were gathered from patent US20240400654A1.

- STUDY_SYSTEM: HRgpA-6H (Porphyromonas gingivalis) (UniProt P28784)
- MEASUREMENT_DESCRIPTION: ELISA on coated HRgpA-6H, OD relative to parental Fab
Measured Ratio OD(Variant)/OD(WT), listed per entry.
Use fold as the unit, but write only the number.

Use these answered entries as a reference point.
BINDER: KB001 mouse Fab variant VL S95Q (Fab, V domains shown) VH: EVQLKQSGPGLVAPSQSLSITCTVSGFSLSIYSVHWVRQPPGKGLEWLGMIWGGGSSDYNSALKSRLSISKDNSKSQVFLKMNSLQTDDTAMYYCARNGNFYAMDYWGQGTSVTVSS VL: QIVLTQSPAIMSASLGERVTMTCTASSSVSSSFLHWYQQKPGSSPQLWIYSTSNLASGVPARFSGSGSGTSYSLTISSMEAEDAATYYCHQYHHQPYIYTFGGGTKLEIK
UOM: fold
Ratio OD(Variant)/OD(WT): 0.972
--
BINDER: KB001 mouse Fab variant VL Y97I (Fab, V domains shown) VH: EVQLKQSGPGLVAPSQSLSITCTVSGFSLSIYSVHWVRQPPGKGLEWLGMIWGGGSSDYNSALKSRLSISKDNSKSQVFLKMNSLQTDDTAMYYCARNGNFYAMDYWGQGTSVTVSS VL: QIVLTQSPAIMSASLGERVTMTCTASSSVSSSFLHWYQQKPGSSPQLWIYSTSNLASGVPARFSGSGSGTSYSLTISSMEAEDAATYYCHQYHHSPIIYTFGGGTKLEIK
UOM: fold
Ratio OD(Variant)/OD(WT): 0.845
--
BINDER: KB001 mouse Fab variant VL H90W (Fab, V domains shown) VH: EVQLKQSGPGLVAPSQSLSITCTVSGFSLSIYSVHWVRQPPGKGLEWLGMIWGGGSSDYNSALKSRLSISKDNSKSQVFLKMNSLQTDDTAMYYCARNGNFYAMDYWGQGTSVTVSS VL: QIVLTQSPAIMSASLGERVTMTCTASSSVSSSFLHWYQQKPGSSPQLWIYSTSNLASGVPARFSGSGSGTSYSLTISSMEAEDAATYYCWQYHHSPYIYTFGGGTKLEIK
UOM: fold
Ratio OD(Variant)/OD(WT): 0.886
--
BINDER: KB001 mouse Fab variant VL L55Q (Fab, V domains shown) VH: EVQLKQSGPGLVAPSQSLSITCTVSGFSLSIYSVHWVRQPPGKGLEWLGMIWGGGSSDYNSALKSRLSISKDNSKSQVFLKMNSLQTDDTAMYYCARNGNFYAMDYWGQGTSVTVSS VL: QIVLTQSPAIMSASLGERVTMTCTASSSVSSSFLHWYQQKPGSSPQLWIYSTSNQASGVPARFSGSGSGTSYSLTISSMEAEDAATYYCHQYHHSPYIYTFGGGTKLEIK
UOM: fold
Ratio OD(Variant)/OD(WT): 0.845

Would you kindly look at the next entry?
Q) Provide one value: measured Ratio OD(Variant)/OD(WT) of KB001 mouse Fab variant VL L55R/S51G (Fab, V domains shown) VH: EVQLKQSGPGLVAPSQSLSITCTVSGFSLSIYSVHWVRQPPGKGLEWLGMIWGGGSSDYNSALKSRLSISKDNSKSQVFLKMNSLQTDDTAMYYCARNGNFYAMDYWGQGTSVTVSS VL: QIVLTQSPAIMSASLGERVTMTCTASSSVSSSFLHWYQQKPGSSPQLWIYGTSNRASGVPARFSGSGSGTSYSLTISSMEAEDAATYYCHQYHHSPYIYTFGGGTKLEIK
A) 0.955
